target: Glycine receptor (Rattus norvegicus, UniProt P07727+P20781+P22771+P24524); type: cell membranes, Wistar, Spinal cord, Membrane; note: in other assays of this panel Not Active means under 50% inhibition at 10 µM
Sequence (P22771 whole entry): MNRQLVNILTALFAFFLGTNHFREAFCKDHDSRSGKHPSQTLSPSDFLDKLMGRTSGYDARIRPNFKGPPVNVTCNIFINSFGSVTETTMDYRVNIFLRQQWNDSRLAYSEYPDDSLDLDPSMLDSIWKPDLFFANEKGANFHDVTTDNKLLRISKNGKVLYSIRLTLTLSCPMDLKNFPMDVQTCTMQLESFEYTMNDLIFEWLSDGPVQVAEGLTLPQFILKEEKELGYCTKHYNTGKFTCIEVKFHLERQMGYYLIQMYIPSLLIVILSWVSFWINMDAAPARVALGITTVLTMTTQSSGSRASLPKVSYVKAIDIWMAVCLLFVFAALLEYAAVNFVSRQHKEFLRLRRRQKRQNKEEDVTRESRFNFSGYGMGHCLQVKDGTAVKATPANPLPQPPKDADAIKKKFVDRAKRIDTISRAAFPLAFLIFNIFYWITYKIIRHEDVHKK
Sequence (P24524 whole entry): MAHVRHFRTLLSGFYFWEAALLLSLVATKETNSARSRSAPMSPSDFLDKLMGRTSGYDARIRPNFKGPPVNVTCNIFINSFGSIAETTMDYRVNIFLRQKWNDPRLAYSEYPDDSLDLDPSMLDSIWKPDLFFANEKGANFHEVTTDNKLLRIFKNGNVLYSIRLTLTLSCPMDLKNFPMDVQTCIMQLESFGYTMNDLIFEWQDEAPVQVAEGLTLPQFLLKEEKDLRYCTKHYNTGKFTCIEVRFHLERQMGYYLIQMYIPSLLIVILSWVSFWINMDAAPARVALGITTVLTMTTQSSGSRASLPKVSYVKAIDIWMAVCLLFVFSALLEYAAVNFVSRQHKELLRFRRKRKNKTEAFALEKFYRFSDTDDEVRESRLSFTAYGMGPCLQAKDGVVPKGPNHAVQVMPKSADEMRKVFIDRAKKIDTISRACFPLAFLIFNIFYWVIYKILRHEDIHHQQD
Sequence (P07727 whole entry): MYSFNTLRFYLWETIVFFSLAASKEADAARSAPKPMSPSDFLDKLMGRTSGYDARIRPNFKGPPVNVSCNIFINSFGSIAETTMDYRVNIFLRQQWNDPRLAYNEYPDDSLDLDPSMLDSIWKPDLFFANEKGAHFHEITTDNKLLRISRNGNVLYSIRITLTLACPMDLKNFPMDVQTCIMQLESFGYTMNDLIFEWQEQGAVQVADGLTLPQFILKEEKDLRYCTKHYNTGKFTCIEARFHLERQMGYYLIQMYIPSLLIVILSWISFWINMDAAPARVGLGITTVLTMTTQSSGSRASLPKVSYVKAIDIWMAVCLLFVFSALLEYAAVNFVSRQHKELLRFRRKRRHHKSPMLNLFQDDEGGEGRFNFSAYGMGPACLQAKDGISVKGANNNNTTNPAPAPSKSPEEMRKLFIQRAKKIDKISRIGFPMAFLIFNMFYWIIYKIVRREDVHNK
Sequence (P20781 whole entry): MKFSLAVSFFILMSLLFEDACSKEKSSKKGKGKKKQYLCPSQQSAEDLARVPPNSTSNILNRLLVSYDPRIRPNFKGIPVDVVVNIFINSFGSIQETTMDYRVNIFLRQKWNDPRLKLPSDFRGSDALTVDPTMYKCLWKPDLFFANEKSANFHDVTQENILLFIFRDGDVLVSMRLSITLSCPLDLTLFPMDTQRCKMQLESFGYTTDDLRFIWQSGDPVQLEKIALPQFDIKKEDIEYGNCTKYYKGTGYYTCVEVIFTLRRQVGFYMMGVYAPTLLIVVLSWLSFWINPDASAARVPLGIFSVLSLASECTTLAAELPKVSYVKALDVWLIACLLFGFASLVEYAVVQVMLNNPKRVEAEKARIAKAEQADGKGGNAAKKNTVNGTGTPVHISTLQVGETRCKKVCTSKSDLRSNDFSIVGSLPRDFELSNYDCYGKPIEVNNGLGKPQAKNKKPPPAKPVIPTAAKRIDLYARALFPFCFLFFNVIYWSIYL
readoutLabel: pKi
// field semantics: pKi = negative decimal log of concentration (mol/L)

// query API: value(readout=pKi, system=Glycine receptor (Rattus norvegicus, UniProt P07727+P20781+P22771+P24524)) for record O=C1C[C@@H]2OCC=C3CN4CC[C@]56c7ccccc7N1[C@H]5[C@H]2[C@H]3C[C@H]46; note: in other assays of this panel Not Active means under 50% inhibition at 10 µM
// result 8.33

* * *

target: Glycine receptor (Rattus norvegicus, UniProt P07727+P20781+P22771+P24524); note: in other assays of this panel Not Active means under 50% inhibition at 10 µM
readoutLabel: IC50 (nM)
Write it as a number; the unit nM goes unstated.

// query Provide the documented IC50 with Glycine receptor (Rattus norvegicus, UniProt P07727+P20781+P22771+P24524) as the system for O=C1C[C@@H]2OCC=C3CN4CC[C@]56c7ccccc7N1[C@H]5[C@H]2[C@H]3C[C@H]46 [STRYCHNINE]
// result 8.29

* * *

biological target: Mu-type opioid receptor (Homo sapiens, UniProt P35372)
Sequence (P35372 whole entry): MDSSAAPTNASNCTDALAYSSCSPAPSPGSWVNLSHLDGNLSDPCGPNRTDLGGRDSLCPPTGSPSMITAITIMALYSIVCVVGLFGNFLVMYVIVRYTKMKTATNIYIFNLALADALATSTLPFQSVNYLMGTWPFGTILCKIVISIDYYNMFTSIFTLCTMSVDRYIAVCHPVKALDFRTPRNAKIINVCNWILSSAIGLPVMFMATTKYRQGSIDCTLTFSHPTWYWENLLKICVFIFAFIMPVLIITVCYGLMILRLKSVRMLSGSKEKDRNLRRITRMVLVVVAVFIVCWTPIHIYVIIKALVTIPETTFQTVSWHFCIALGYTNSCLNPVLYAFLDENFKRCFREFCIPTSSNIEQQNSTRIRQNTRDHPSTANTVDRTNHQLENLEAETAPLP
readoutLabel: pKi
When answering, recall that pKi equals minus log10 of the concentration in mol/L, and write that number alone.

Worked cases, pKi given:
                                   compound                                measuredon  observedresult
0  Clc1ccc(COC(Cn2ccnc2)c2ccc(Cl)cc2Cl)c(Cl)c1 (centres undefined)  Mu-type opioid receptor (Homo sapiens, UniProt P35372)            5.61
1  CC(C)C[C@H]1C(=O)N2CCC[C@H]2[C@]2(O)O[C@](NC(=O)[C@@H]3C=C4c5cccc6[nH]cc(c56)C[C@H]4N(C)C3)(C(C)C)C(=O)N12  Mu-type opioid receptor (Homo sapiens, UniProt P35372)            6.01
2  Cc1c(O)cccc1C(=O)N[C@@H](CSc1ccccc1)[C@H](O)CN1C[C@H]2CCCC[C@H]2C[C@H]1C(=O)NC(C)(C)C  Mu-type opioid receptor (Homo sapiens, UniProt P35372)            5.23

Here is the next item to consider.
// query Look up pKi with Mu-type opioid receptor (Homo sapiens, UniProt P35372) for this compound: COC(=O)[C@H]1[C@H]2C[C@@H]3c4[nH]c5cc(OC)ccc5c4CCN3C[C@H]2C[C@@H](OC(=O)c2cc(OC)c(OC)c(OC)c2)[C@@H]1OC
// result 5.77

* * *

test: DRUGMATRIX: Phosphodiesterase PDE4 enzyme inhibition (substrate: [3H]cAMP + cAMP); details: u-937; Not Active = under 50% inhibition at 10 µM
readoutLabel: Ki

                                   molecule  observedresult
0  CN1CCN(CCCN2c3ccccc3Sc3ccc(C(F)(F)F)cc32)CC1      Not Active
1  COc1ccc2c(c1OC)C(=O)O[C@@H]2[C@H]1c2c(cc3c(c2OC)OCO3)CCN1C      Not Active
2  COc1ccnc(C[S+]([O-])c2nc3ccc(OC(F)F)cc3[nH]2)c1OC (stereo not drawn)      Not Active
3  C[C@]12C=CC(=O)C=C1CC[C@H]1[C@@H]3C[C@@H](O)[C@](O)(C(=O)CO)[C@@]3(C)C[C@H](O)[C@@]12F      Not Active

// query For CCCCC1=NC2(CCCC2)C(=O)N1Cc1ccc(-c2ccccc2-c2nnn[nH]2)cc1 , what is its reported Ki?
// result Not Active

// query So what does the record say about Ki for Cc1cc(O)cc(C)c1Cl ?
// result Not Active

// query Fill blank: measured Ki of the molecule COC(=O)[C@H]1[C@H]2C[C@@H]3c4[nH]c5cc(OC)ccc5c4CCN3C[C@H]2C[C@@H](OC(=O)c2cc(OC)c(OC)c(OC)c2)[C@@H]1OC is ____.
// result Not Active

// query Query: Ki; subject: CC(=O)OCC(COC(C)=O)OC(C)=O
// result Not Active

* * *

Biological target: Muscarinic acetylcholine receptor M4 (Homo sapiens, UniProt P08173); note: in other assays of this panel Not Active means under 50% inhibition at 10 µM
Sequence (P08173 whole entry): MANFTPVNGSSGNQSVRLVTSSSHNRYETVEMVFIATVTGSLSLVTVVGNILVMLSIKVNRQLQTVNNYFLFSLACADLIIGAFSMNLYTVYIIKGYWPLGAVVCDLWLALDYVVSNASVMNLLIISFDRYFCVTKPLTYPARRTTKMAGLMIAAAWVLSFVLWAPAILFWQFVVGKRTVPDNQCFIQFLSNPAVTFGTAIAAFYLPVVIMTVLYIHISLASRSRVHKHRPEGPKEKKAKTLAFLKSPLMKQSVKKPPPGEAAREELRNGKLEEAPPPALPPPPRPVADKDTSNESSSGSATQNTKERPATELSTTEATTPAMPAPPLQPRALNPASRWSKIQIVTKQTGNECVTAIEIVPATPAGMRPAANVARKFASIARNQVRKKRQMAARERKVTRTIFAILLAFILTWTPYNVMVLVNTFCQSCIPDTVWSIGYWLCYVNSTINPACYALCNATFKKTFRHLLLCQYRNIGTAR
Type: cell membranes, CHO-K1, Membrane
Settings: read-out: IC50
pIC50: −log10 of the molar value.
Criterion: pIC50 meeting or surpassing 6. Met: MET. Not met: NOT MET.

In [3]: df
Out[3]:
                                   compound  assignedclass
0  CCN(CC)CCCC(C)Nc1c2ccc(Cl)cc2nc2ccc(OC)cc12 (stereo not given)        NOT MET
1  CCCCCCCCNC(C)C(O)c1ccc(SC(C)C)cc1 (stereo not given)        NOT MET
2   N=C(N)c1ccc(OCCCCCOc2ccc(C(=N)N)cc2)cc1        NOT MET
3  CN1CCCC(CN2c3ccccc3Sc3ccccc32)C1 (stereo not given)            MET

Below: the item to evaluate.
// query Quick check: does Clc1ccc(COC(Cn2ccnc2)c2ccc(Cl)cc2Cl)c(Cl)c1 (stereo not given) have pIC50 greater than or equal to 6?
// result NOT MET

* * *

molecular target: Aldo-keto reductase family 1 member B1 (Rattus norvegicus, UniProt P07943); test: biochemical; format: tissue-based, Lens of camera-type eye; note: in other assays of this panel Not Active means under 50% inhibition at 10 µM;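 note: inhibition of aldose reductase enzyme activity, measured with DL-glyceraldehyde as the substrate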
readoutLabel: IC50

>>> print(df.to_string())
                                   compound  readoutlabel  observedresult
0  COc1cccc2c1C(=O)c1c(O)c3c(c(O)c1C2=O)C[C@@](O)(C(C)=O)C[C@@H]3O[C@H]1C[C@H](N)[C@H](O)[C@H](C)O1 [DAUNORUBICIN]          IC50      Not Active
1  CCN(CC)CCCC(C)Nc1c2ccc(Cl)cc2nc2ccc(OC)cc12 (centres undefined) [QUINACRINE]          IC50      Not Active
2  CC1CCC(NC(=O)N(CCCl)N=O)CC1 (centres undefined) [SEMUSTINE]          IC50      Not Active
3  N=C(N)c1ccc(OCCCCCOc2ccc(C(=N)N)cc2)cc1 [PENTAMIDINE]          IC50      Not Active

* * *

molecular target: Platelet-activating factor receptor (Homo sapiens, UniProt P25105); format: tissue-based; note: in other assays of this panel Not Active means under 50% inhibition at 10 µM
Sequence (P25105 whole entry): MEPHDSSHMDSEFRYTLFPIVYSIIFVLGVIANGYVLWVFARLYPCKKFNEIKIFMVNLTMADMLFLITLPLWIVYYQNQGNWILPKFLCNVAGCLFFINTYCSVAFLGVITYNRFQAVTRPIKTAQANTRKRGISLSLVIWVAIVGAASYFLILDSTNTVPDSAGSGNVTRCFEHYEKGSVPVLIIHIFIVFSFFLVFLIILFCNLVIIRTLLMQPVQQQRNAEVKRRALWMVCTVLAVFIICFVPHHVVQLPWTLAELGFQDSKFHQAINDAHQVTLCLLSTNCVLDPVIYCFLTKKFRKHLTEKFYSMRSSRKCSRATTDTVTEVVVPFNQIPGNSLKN
readoutLabel: IC50

molecule	IC50
O=C1C[C@@H]2OCC=C3CN4CC[C@]56c7ccccc7N1[C@H]5[C@H]2[C@H]3C[C@H]46	Not Active
CC[C@]1(O)C[C@@H]2CN(CCc3c([nH]c4ccccc34)[C@@](C(=O)OC)(c3cc4c(cc3OC)N(C)[C@H]3[C@@](O)(C(N)=O)[C@H](O)[C@]5(CC)C=CCN6CC[C@]43[C@@H]65)C2)C1	Not Active
CN1CCN(C2=Nc3cc(Cl)ccc3Nc3ccccc32)CC1	Not Active
C[C@]12CC[C@H]3[C@@H](CCC4=CC(=O)CC[C@@H]43)[C@@H]1CC[C@@H]2O	Not Active
CC(C)(C)NCC(O)COc1cccc2c1CC(O)C(O)C2 (configuration not stated)	Not Active

# next molecule below
// query Which IC50 reading was recorded for the molecule CN1CCN(C(c2ccccc2)c2ccccc2)CC1 ?
// result Not Active

* * *

biological target: Cytochrome P450 2C19 (Homo sapiens); note: in other assays of this panel Not Active means under 50% inhibition at 10 µM
Sequence (P33261 whole entry): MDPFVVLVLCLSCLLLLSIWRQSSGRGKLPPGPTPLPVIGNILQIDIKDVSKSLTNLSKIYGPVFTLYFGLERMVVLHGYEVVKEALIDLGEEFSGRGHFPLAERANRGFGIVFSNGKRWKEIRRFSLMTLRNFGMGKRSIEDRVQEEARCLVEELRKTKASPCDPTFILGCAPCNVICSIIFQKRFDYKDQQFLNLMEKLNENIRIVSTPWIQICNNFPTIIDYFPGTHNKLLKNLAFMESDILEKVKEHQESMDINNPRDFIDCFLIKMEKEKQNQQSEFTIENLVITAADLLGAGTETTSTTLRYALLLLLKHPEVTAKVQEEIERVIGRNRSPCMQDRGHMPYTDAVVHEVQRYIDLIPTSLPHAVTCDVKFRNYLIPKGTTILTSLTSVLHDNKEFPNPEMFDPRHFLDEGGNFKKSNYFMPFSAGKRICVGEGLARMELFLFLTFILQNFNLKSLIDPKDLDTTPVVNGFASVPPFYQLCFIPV
readoutLabel: pIC50
Note on pIC50: it is the negative log10 of concentration, concentration in mol/L.

                                   compound  observedresult
0         O=C(c1ccccc1F)N1CCC(Cc2ccccc2)CC1            6.30
1                 NNCCc1ccccc1 [PHENELZINE]            6.10
2  COc1ccc2c(c1OC)C(=O)O[C@@H]2[C@H]1c2c(cc3c(c2OC)OCO3)CCN1C [NOSCAPINE]            6.40

With those in mind, consider the next compound.
// query Value wanted: pIC50 (Cytochrome P450 2C19 (Homo sapiens)) of entry C[S+]([O-])c1ccc(-c2nc(-c3ccncc3)c(-c3ccc(F)cc3)[nH]2)cc1 (centres undefined) [SB-203580]
// result 6.10
